Measured normalized growth, listed per entry.
Test: chemical genetic growth profiling, strain panel (AID 1159580);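 note: tested at 20 µM; growth read once vehicle control cultures reached saturation at 30 °C; 1 = growth at the plate median or of vehicle wells; lower values mean less growth of the strain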
Details: S. cerevisiae deletion strains, growth OD, locus YNL322C, strain KRE1 (second series), hits give low values
About 2,000 (36%) of roughly 5,500 compounds were called active. About 18% were inconclusive and are not listed. Some of the results follow.
# output: bare number, no unit

// worked examples, normalized growth included
- Compound: "COc1ccc(C(=O)CC(=O)O)c2c1C=CC(C)(C)O2"
  normalized growth: 1.01
- Compound: "O=C1NCC2(CCN(CCc3ccccc3)CC2)O1"
  normalized growth: 0.999
- Compound: "CCC(C)C(=O)O[C@@H]1C[C@@]2(C)[C@H](c3ccoc3)OC(=O)CC23OC2(C)OC34[C@H](OC(=O)C(C)C)[C@@]3(O)[C@@H](OC(=O)C5(C)OC5C)[C@@]5(C)C[C@]3(O)[C@@](C)([C@H]5CC(=O)OC)C14O2 (stereo not given in full)"
  normalized growth: 1
- Compound: "COC(=O)C[C@H]1C2(C)CC34OC5(C)O[C@@]6([C@H](OC)C(OC(=O)C(C)C)[C@]7(C)C(/C(=C(/OC)C(C)C)C(=O)O[C@H]7c7ccoc7)[C@@]6(O5)[C@H](OC)[C@@]3(OC)C2OC(C)=O)[C@]14C (stereo not given in full)"
  normalized growth: 0.972
- Compound: "CC1COc2c(N3CCN(C)CC3)c(F)cc3c(=O)c(C(=O)O)cn1c23 (stereo not given)"
  normalized growth: 0.978
- Compound: "CC[C@@]1(O)C[C@H](O[C@H]2C[C@H](N(C)C)[C@H](O)[C@H](C)O2)c2c(cc3c(c2O)C(=O)c2c(O)ccc(O)c2C3=O)[C@H]1C(=O)OC"
  normalized growth: 0.972
- Compound: "CCCCCCCCCCCCCc1ccco1"
  normalized growth: 0.995
- Compound: "CNCCC(Oc1ccc(C(F)(F)F)cc1)c1ccccc1 (stereo not given)"
  normalized growth: 0.986
- Compound: "CC1(O)CC2C(CC1O)C2(C)C (stereo not given)"
  normalized growth: 0.981
- Compound: "C=CCCCCCCCCCCCc1ccco1"
  normalized growth: 0.976

The recorded normalized growth for entry CC1CCc2cc(F)cc3c(=O)c(C(=O)O)cn1c23 (stereo not given) equals 0.995

Measured normalized growth, Oc1cc(O)c2c(c1)O[C@H](c1cc(O)c(O)c(O)c1)[C@H](O)C2 : 1.02

Value of measured normalized growth for the entry CC[C@]1(O)CC2CN(CCc3c([nH]c4ccccc34)[C@@](C(=O)OC)(c3cc4c(cc3OC)N(C)[C@H]3[C@@](O)(C(=O)OC)[C@H](OC(C)=O)[C@]5(CC)C=CCN6CC[C@]43[C@@H]65)C2)C1 (stereo not given in full) : 0.977

normalized growth for COc1ccc2c(c1)OC/C(=C/c1ccc(OC)c(OC)c1)C2=O is 0.98

Reported normalized growth for CCN(CC)C(=O)N1CCN(C)CC1 was 0.979

From: PubChem BioAssay AID1159580
